Cited source for all entries: patent US11173162B2

# System: FGFR3 enzyme
# RUN_DESCRIPTION: FGFR Enzymatic Assay (FRET peptide phosphorylation), FGFR3
# Type: biochemical
# CONDITION_SET: IC50 ratio showing FGFR3 selectivity; Table 2A, pre-incubated for 4 hours

{"MOLECULE": "COc1ccc(N2C(=O)N(c3c(F)c(OC)cc(OC)c3F)Cc3cnc(-c4cn(C)nc4C)cc32)cc1", "FGFR1/FGFR3": ">3"}
{"MOLECULE": "CCCn1cc(N2C(=O)N(c3c(F)c(OC)cc(OC)c3F)Cc3cnc(-c4cn(C)nc4C)cc32)cn1", "FGFR1/FGFR3": ">3"}
{"MOLECULE": "COc1cc(OC)c(F)c(N2Cc3cnc(-c4cncc(NS(C)(=O)=O)c4)cc3C3(CC3)C2=O)c1F", "FGFR1/FGFR3": ">3"}
{"MOLECULE": "COc1cc(OC)c(F)c(N2Cc3cnc(-c4cn(C)nc4C)cc3N(c3cn[nH]c3)C2=O)c1F", "FGFR1/FGFR3": ">5"}
{"MOLECULE": "COc1cc(OC)c(F)c(N2Cc3cnc(-c4cncc(S(=O)(=O)N5CCOCC5)c4)cc3C3(CC3)C2=O)c1F", "FGFR1/FGFR3": ">5"}
{"MOLECULE": "COc1cc(OC)c(F)c(N2Cc3cnc(-c4cnn(C5CCN(C(C)=O)C5)c4)cc3C3(CC3)C2=O)c1F (centres unmarked)", "FGFR1/FGFR3": ">5"}
{"MOLECULE": "COC(=O)N1CCC(N2C(=O)N(c3c(F)c(OC)cc(OC)c3F)Cc3cnc(-c4cn(C)nc4C)cc32)CC1", "FGFR1/FGFR3": ">5"}
{"MOLECULE": "COc1cc(OC)c(F)c(N2Cc3cnc(-c4cn(C)nc4C)cc3N(Cc3cc(C(C)C)on3)C2=O)c1F", "FGFR1/FGFR3": ">5"}
{"MOLECULE": "COc1cc(OC)c(F)c(N2Cc3cnc(-c4ccc(C5(C#N)CCC5)nc4)cc3N(c3ccncn3)C2=O)c1F", "FGFR1/FGFR3": ">5"}
{"MOLECULE": "COc1cc(OC)c(F)c(N2Cc3cnc(-c4cn(C)nc4C)cc3N(Cc3cccnn3)C2=O)c1F", "FGFR1/FGFR3": ">5"}
{"MOLECULE": "COc1cc(OC)c(F)c(N2Cc3cnc(-c4cccnc4)cc3C3(CC3)C2=O)c1F", "FGFR1/FGFR3": ">3"}
{"MOLECULE": "CCN1C(=O)N(c2c(F)c(OC)cc(OC)c2F)Cc2cnc(-c3cn(CC)nc3C)cc21", "FGFR1/FGFR3": ">5"}
{"MOLECULE": "COc1cc(OC)c(F)c(N2Cc3cnc(-c4cnn(CCN5CCC(OC)C5)c4)cc3C3(CC3)C2=O)c1F (centres unmarked)", "FGFR1/FGFR3": ">5"}
{"MOLECULE": "CCN1C(=O)N(c2c(F)c(OC)cc(OC)c2F)Cc2cnc(-c3ccc(C4(C#N)CCC4)cc3)cc21", "FGFR1/FGFR3": ">5"}
{"MOLECULE": "COc1cc(N2C(=O)N(c3c(F)c(OC)cc(OC)c3F)Cc3cnc(-c4cn(C)nc4C)cc32)ccc1C#N", "FGFR1/FGFR3": ">5"}
{"MOLECULE": "COc1cc(OC)c(F)c(N2Cc3cnc(-c4cn(C)nc4C)cc3N(c3ccc(-n4cccn4)cc3)C2=O)c1F", "FGFR1/FGFR3": ">5"}
{"MOLECULE": "COc1cc(OC)c(F)c(N2Cc3cnc(-c4cn(C)nc4C)cc3N(Cc3cnn(CC#N)c3)C2=O)c1F", "FGFR1/FGFR3": ">5"}
{"MOLECULE": "COc1cc(OC)c(F)c(N2Cc3cnc(-c4ccccc4)cc3C3(CC3)C2=O)c1F", "FGFR1/FGFR3": ">10"}
{"MOLECULE": "COc1cc(OC)c(F)c(N2Cc3cnc(-c4cn(C)nc4C)cc3N(C3CCN(C(C)=O)CC3)C2=O)c1F", "FGFR1/FGFR3": ">10"}
{"MOLECULE": "COc1cc(OC)c(F)c(N2Cc3cnc(-c4cnn(CCN5CCOCC5)c4)cc3C3(CC3)C2=O)c1F", "FGFR1/FGFR3": ">5"}
{"MOLECULE": "COc1ccc(CN2C(=O)N(c3c(F)c(OC)cc(OC)c3F)Cc3cnc(-c4cn(C)nc4C)cc32)cn1", "FGFR1/FGFR3": ">10"}
{"MOLECULE": "COc1cc(OC)c(F)c(N2Cc3cnc(-c4cn(C)nc4C)cc3N(Cc3ccc(F)c(F)c3)C2=O)c1F", "FGFR1/FGFR3": ">5"}
{"MOLECULE": "COc1cc(OC)c(F)c(N2Cc3cnc(-c4cn(C)nc4C)cc3N(Cc3ccncc3)C2=O)c1F", "FGFR1/FGFR3": ">5"}
{"MOLECULE": "COc1cc(OC)c(F)c(N2Cc3cnc(-c4cn(C)nc4C)cc3N(c3cnn(C4CC4)c3)C2=O)c1F", "FGFR1/FGFR3": ">5"}
{"MOLECULE": "COc1cnc(N2C(=O)N(c3c(F)c(OC)cc(OC)c3F)Cc3cnc(-c4cn(C)nc4C)cc32)cn1", "FGFR1/FGFR3": ">3"}
{"MOLECULE": "COc1cc(OC)c(F)c(N2Cc3cnc(-c4cnn(C5(CC#N)CN(C(C)=O)C5)c4)cc3C3(CC3)C2=O)c1F", "FGFR1/FGFR3": ">5"}
{"MOLECULE": "COc1cc(OC)c(F)c(N2Cc3cnc(-c4cn(C)nc4C)cc3N(c3ccc4ncsc4c3)C2=O)c1F", "FGFR1/FGFR3": ">1"}
{"MOLECULE": "COc1cc(OC)c(F)c(N2Cc3cnc(-c4cnn(C5(C#N)CCC5)c4C)cc3C3(CC3)C2=O)c1F", "FGFR1/FGFR3": ">5"}
{"MOLECULE": "COc1cc(OC)c(F)c(N2Cc3cnc(-c4cn(C)nc4C)cc3N(Cc3nnc(C)o3)C2=O)c1F", "FGFR1/FGFR3": ">10"}
